Exercise: state measured log10(IC50) for each of the molecules provided.
biological target: VIM-1 (Pseudomonas aeruginosa (strain ATCC 15692 / DSM 22644 / CIP 104116 / JCM 14847 / LMG 12228 / 1C / PRS 101 / PAO1), UniProt A0A0F7KYQ8); test: biochemical; conditions: CCF2-FA fluorescence assay, 2 hours at 25° C.; read-out: VIM1 IC50
Values are log10 of IC50 in nM.

**Query** Any idea what its log10(IC50) is? The molecule is NCC=C1CCN(c2ccc(S(=O)(=O)NC[C@H](O)CN)c(S(N)(=O)=O)c2-c2nn[nH]n2)CC1 [Example 204]
**Result** -0.80

**Query** Name the reported log10(IC50) value associated with the molecule NC[C@@H](O)CNS(=O)(=O)c1ccc(N2CCC(F)(CO)CC2)c(-c2nn[nH]n2)c1S(N)(=O)=O [Example 22]
**Result** -0.46

**Query** State the recorded log10(IC50) for this entry: NS(=O)(=O)c1c(S(=O)(=O)N[C@@H]2CCNC2)ccc(N2CCC(CF)CC2)c1-c1nnn[nH]1 [Example 89]
**Result** -0.68

**Query** Requested field: log10(IC50). Item: NCCNS(=O)(=O)C1CCN(c2ccc(S(=O)(=O)N[C@@H](CN)CO)c(S(N)(=O)=O)c2-c2nn[nH]n2)CC1 [Example 202]
**Result** -1.05

**Query** Any idea what its log10(IC50) is? The molecule is NC[C@@H](O)CNS(=O)(=O)c1ccc(NC2CCC(N)C2)c(-c2nn[nH]n2)c1S(N)(=O)=O (stereo partly drawn) [compound 184]
**Result** 0.66

**Query** Can you look up the measured log10(IC50) of NS(=O)(=O)c1c(S(=O)(=O)N[C@@H]2CCNC2)ccc(N2CCN(CCCO)CC2)c1-c1nnn[nH]1 [Example 93] for me?
**Result** 0.56

**Query** // lookup log10(IC50) for NC[C@@H](O)CNS(=O)(=O)c1ccc(N2CC[C@H](CN)[C@H](O)C2)c(-c2nn[nH]n2)c1S(N)(=O)=O [Example 9]
**Result** -0.59

**Query** Requested read-out: log10(IC50). Entry: NC[C@@H](O)CNS(=O)(=O)c1ccc(N2CC[C@H](CN)[C@@H](O)C2)c(-c2nn[nH]n2)c1S(N)(=O)=O [Example 10]
**Result** -0.37

**Query** Name the reported log10(IC50) value associated with the molecule NC(=O)C1CCN(c2ccc(S(=O)(=O)N[C@@H]3CCNC3)c(S(N)(=O)=O)c2-c2nnn[nH]2)C1 (stereo partly drawn) [Example 92]
**Result** -0.52

**Query** What log10(IC50) value was documented for this molecule, C[C@@H](CN)NS(=O)(=O)c1ccc(N2CCC(O)(CN)CC2)c(-c2nn[nH]n2)c1S(N)(=O)=O [Example 18] ?
**Result** -0.19

**Query** State the recorded log10(IC50) for this entry: NS(=O)(=O)c1c(S(=O)(=O)N[C@@H]2CCNC2)ccc(N2CCN(CCO)CC2)c1-c1nn[nH]n1 [Example 162]
**Result** 0.39

**Query** Data request, read-out log10(IC50), for NC[C@@H](O)CNS(=O)(=O)c1ccc(N2CCC(N)CC2)c(-c2nn[nH]n2)c1S(N)(=O)=O [Example 194]
**Result** -0.77

**Query** // returns reported log10(IC50) for input NC[C@@H](O)CNS(=O)(=O)c1ccc(N2CCC(CCn3cccn3)CC2)c(-c2nn[nH]n2)c1S(N)(=O)=O [Example 27]
**Result** -1.22

**Query** Given the molecule CN1CCN(c2ccc(S(=O)(=O)N[C@@H]3CCNC3)c(S(N)(=O)=O)c2-c2nnn[nH]2)CC1=O [Example 65] , what is its reported log10(IC50)?
**Result** -0.66

**Query** So what does the record say about log10(IC50) for NS(=O)(=O)c1c(S(=O)(=O)N[C@@H]2CCNC2)ccc(N2CC3(CCNCC3)C2)c1-c1nnn[nH]1 [Example 113] ?
**Result** -0.09

---

system: P. aeruginosa MB9798 (efflux+, IMP-1 plasmid); conditions: fold difference between efflux+ (MB9798) and efflux− (MB9799) strains
observable: Efflux ratio
The answer should be written as a number, with no unit following it.

**Query** Efflux ratio for NS(=O)(=O)c1c(S(=O)(=O)N[C@@H]2CCNC2)ccc(NCCN2CCNCC2)c1-c1nnn[nH]1 ?
**Result** 8.00

**Query** State the recorded Efflux ratio for this entry: NS(=O)(=O)c1c(S(=O)(=O)N[C@@H]2CCNC2)ccc(N2CCN(C(=O)CO)CC2)c1-c1nnn[nH]1
**Result** 1.00

**Query** Quick one: Efflux ratio of CC(=O)N[C@H]1CCN(c2ccc(S(=O)(=O)N[C@@H]3CCNC3)c(S(N)(=O)=O)c2-c2nnn[nH]2)C1 ?
**Result** 4.00

**Query** What value of Efflux ratio has been recorded for this entry: N[C@H]1CCCN(c2ccc(S(=O)(=O)C3CNC3)c(S(N)(=O)=O)c2-c2nnn[nH]2)C1
**Result** 8.00

**Query** # get_value(readout='Efflux ratio', item= NC[C@@H](O)CNS(=O)(=O)c1ccc(N2CCN(CCO)C(=O)C2)c(-c2nn[nH]n2)c1S(N)(=O)=O )
**Result** 1.00

**Query** For NC[C@@H](O)CNS(=O)(=O)c1ccc(N2CCC3(CC2)CNC(=O)OC3)c(-c2nn[nH]n2)c1S(N)(=O)=O , what is its reported Efflux ratio?
**Result** 2.00

**Query** Can you share its Efflux ratio? I mean this molecule: CN(C)CC1(O)CCN(c2ccc(S(=O)(=O)N[C@@H]3CCNC3)c(S(N)(=O)=O)c2-c2nnn[nH]2)CC1
**Result** 2.00

**Query** Record request: Efflux ratio value, item NS(=O)(=O)c1c(S(=O)(=O)N[C@@H]2CCNC2)ccc(N2CCCC(O)C2=O)c1-c1nn[nH]n1 (stereo partly shown)
**Result** 2.00

**Query** Which Efflux ratio value is on record for NS(=O)(=O)c1c(S(=O)(=O)N[C@@H]2CCNC2)ccc(N2CCC(F)(CO)CC2)c1-c1nnn[nH]1 ?
**Result** 2.00

**Query** Entry under review: NS(=O)(=O)c1c(S(=O)(=O)N[C@@H]2CCNC2)ccc(N2CC[C@H](CO)C2)c1-c1nnn[nH]1 . Reported Efflux ratio?
**Result** 2.00

---

target: IMP-1 (Serratia marcescens)
Sequence (P52699 whole entry, looked up, species assumed): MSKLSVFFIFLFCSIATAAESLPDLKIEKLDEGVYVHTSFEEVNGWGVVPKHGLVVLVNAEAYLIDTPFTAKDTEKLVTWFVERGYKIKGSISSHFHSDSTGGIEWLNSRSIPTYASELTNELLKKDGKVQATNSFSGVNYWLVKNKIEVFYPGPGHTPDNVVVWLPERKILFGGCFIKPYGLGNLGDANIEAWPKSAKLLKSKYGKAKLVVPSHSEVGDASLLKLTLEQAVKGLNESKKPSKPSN
observable: pIC50
Note: pIC50 values are expressed as the negative base-10 logarithm of concentration in M.

**Query** Looking for the measured pIC50 of NS(=O)(=O)c1c(S(=O)(=O)N[C@@H]2CCNC2)ccc(N2CCCN(CCO)CC2)c1-c1nnn[nH]1 [Example 69] , can you help?
**Result** 7.53

**Query** Can you look up the measured pIC50 of NC(=O)C1CCN(c2ccc(S(=O)(=O)N[C@@H]3CCNC3)c(S(N)(=O)=O)c2-c2nnn[nH]2)CC1 [Example 94] for me?
**Result** 9.30

**Query** # input compound: NS(=O)(=O)c1c(S(=O)(=O)C2CNC2)ccc(N2CC[C@H](CO)[C@H](F)C2)c1-c1nnn[nH]1 [Example 61] ; wanted: its pIC50
**Result** 8.89

**Query** Endpoint output: pIC50 of NCC1CCN(c2ccc(S(=O)(=O)C[C@H](O)CN)c(S(N)(=O)=O)c2-c2nn[nH]n2)CC1 [Example 128] . Value?
**Result** 8.44

**Query** Sample NC[C@@H](O)CNS(=O)(=O)c1ccc(N2CCN3CCOCC3C2)c(-c2nn[nH]n2)c1S(N)(=O)=O (stereo partly drawn) [Example 129, 2,2,2-trifluoroacetate] — what was its pIC50?
**Result** 8.33

**Query** Bench note: what pIC50 did N[C@@H]1CCCN(c2ccc(S(=O)(=O)N[C@@H]3CCNC3)c(S(N)(=O)=O)c2-c2nn[nH]n2)C1=O [Example 155] show?
**Result** 7.09

**Query** What measured pIC50 goes with NC[C@@H](O)CNS(=O)(=O)c1ccc(N2CCC(C(N)CO)CC2)c(-c2nn[nH]n2)c1S(N)(=O)=O (single isomer, unassigned) [Example 180] ?
**Result** 8.20

**Query** State the recorded pIC50 for this entry: NC/C=C1\CCCN(c2ccc(S(=O)(=O)NC[C@H](O)CN)c(S(N)(=O)=O)c2-c2nn[nH]n2)C1 (single isomer, unassigned; isomer b) [Example 206]
**Result** 7.82

**Query** Would you kindly share the measured pIC50 for NS(=O)(=O)c1c(S(=O)(=O)N[C@@H]2CCNC2)ccc(N2CC[C@@H](CO)C2)c1-c1nnn[nH]1 [Example 70] ?
**Result** 9.29

**Query** Given the entry CN1CCN(c2ccc(S(=O)(=O)N[C@@H]3CCNC3)c(S(N)(=O)=O)c2-c2nnn[nH]2)CC1=O [Example 65] , report its measured pIC50.
**Result** 8.65

**Query** Would you mind telling me what pIC50 value was observed for NC[C@@H](O)CNS(=O)(=O)c1ccc(N2CCC(CCn3cccn3)CC2)c(-c2nn[nH]n2)c1S(N)(=O)=O [Example 27] ?
**Result** 10.30

**Query** I'd like to know its pIC50. The compound in question is NC[C@@H](O)CNS(=O)(=O)c1ccc(N2CC[C@@H](CN)C2)c(-c2nn[nH]n2)c1S(N)(=O)=O [Example 121]
**Result** 7.18

**Query** Would you mind telling me what pIC50 value was observed for NS(=O)(=O)c1c(S(=O)(=O)C2CNC2)ccc(N2CCCC(CO)C2)c1-c1nnn[nH]1 (stereo not drawn) [Example 57] ?
**Result** 8.36

**Query** Tell me the measured pIC50 of NCCN1CCN(c2ccc(S(=O)(=O)NC[C@H](O)CN)c(S(N)(=O)=O)c2-c2nnn[nH]2)CC1 [Example 51] , please.
**Result** 8.72

**Query** # pIC50 lookup, item NC[C@@H](O)CNS(=O)(=O)c1ccc(N2CCC(O)CC2)c(-c2nn[nH]n2)c1S(N)(=O)=O [Example 120]
**Result** 9.12

**Query** Param item = NC[C@@H](O)CNS(=O)(=O)c1ccc(N2CC[C@@H](N)C2)c(-c2nn[nH]n2)c1S(N)(=O)=O [Example 125] ; retrieve measured pIC50.
**Result** 7.21

**Query** Please report the recorded pIC50 for NC[C@@H](O)CNS(=O)(=O)c1ccc(N2CC[C@H](CN)[C@@H](F)C2)c(-c2nn[nH]n2)c1S(N)(=O)=O (stereo in doubt) [Example 13] .
**Result** 8.43

**Query** Requested read-out: pIC50. Entry: NC[C@@H](O)CNS(=O)(=O)c1ccc(N2CCC(CC(N)=O)CC2)c(-c2nn[nH]n2)c1S(N)(=O)=O [Example 25]
**Result** 9.41
